# targetDesc: UniProt P52333
# Sequence (P52333 whole entry, species assumed): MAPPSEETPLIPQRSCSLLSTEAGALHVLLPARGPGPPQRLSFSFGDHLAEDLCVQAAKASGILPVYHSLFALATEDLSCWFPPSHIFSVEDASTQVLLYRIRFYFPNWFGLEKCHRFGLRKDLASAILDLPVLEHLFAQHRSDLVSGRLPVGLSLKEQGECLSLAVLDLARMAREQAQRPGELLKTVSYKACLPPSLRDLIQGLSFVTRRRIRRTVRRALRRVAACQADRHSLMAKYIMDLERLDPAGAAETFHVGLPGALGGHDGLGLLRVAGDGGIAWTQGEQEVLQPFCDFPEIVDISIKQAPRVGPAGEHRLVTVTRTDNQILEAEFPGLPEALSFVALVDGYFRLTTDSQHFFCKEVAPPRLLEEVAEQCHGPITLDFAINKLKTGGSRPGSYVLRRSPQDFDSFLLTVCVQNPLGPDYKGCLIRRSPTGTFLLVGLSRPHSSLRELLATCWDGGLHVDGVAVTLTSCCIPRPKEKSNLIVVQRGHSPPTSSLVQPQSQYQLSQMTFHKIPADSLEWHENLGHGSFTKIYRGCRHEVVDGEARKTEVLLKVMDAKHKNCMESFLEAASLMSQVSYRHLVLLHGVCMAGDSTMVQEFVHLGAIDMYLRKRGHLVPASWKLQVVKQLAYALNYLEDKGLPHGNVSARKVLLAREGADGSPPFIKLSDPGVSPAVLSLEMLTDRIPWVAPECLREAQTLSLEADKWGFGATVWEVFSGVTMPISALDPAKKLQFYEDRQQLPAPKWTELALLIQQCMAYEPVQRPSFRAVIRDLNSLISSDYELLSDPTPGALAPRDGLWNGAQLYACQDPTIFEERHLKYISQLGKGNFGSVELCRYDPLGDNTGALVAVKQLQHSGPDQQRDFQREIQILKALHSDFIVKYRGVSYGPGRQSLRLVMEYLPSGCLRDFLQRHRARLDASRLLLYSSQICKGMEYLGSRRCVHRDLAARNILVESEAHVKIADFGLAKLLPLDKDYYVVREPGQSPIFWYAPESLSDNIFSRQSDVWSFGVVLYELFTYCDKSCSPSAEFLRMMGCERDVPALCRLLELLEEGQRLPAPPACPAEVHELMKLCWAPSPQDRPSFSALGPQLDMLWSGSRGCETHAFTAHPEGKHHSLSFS
# experimentNotes: JAK Caliper Enzyme Assay at 1 mM ATP
# Format: biochemical
pIC50: −log10 of the molar value.
The following molecules are listed with their measured pIC50 values.

molecule: C=CC(=O)N1CCC(Nc2cnc3[nH]cc(C(=O)NCc4nc5cc(F)ccc5o4)c3n2)CC1
modifierSign: =
pIC50: 7.60
--
molecule: C=CC(=O)N1CC[C@H](Nc2cnc3[nH]cc(C(=O)NCC4CC(F)(F)C4)c3n2)[C@H](OC)C1
modifierSign: =
pIC50: 7.33
--
molecule: C=CC(=O)N1CCC(C)(Nc2cnc3[nH]cc(C(=O)NCC(C)(F)F)c3n2)CC1
modifierSign: =
pIC50: 7.24
--
molecule: C=CC(=O)N1CCN(c2cnc3[nH]cc(C(=O)NCC(F)(F)F)c3n2)C[C@@H]1CC(C)C
modifierSign: =
pIC50: 6.65
--
molecule: C=CC(=O)N1CC(CF)CC(Nc2ncnc3[nH]ccc23)C1 (mixture of isomers)
modifierSign: =
pIC50: 6.85
--
molecule: C=CC(=O)N1CCN(c2cnc3[nH]cc(C(=O)NC4CCC4)c3n2)CC1
modifierSign: =
pIC50: 7.35
--
molecule: C=CC(=O)N1CCC(Nc2cnc3[nH]cc(C(=O)NCCC4CC4)c3n2)CC1
modifierSign: =
pIC50: 8.22
--
molecule: C=CC(=O)N1CCC(N(C)c2cnc3[nH]cc(C(=O)NCC)c3n2)C1 (racemic)
modifierSign: =
pIC50: 5.94
--
molecule: C=CC(=O)N1CCC(Nc2cnc3[nH]cc(C(=O)NCc4sc(C(F)(F)F)nc4C)c3n2)CC1
modifierSign: =
pIC50: 7.92
--
molecule: C=CC(=O)N1CCN(c2cnc3[nH]cc(C(=O)N[C@@H](C)COC)c3n2)CC1(C)C
modifierSign: =
pIC50: 7.16
--
molecule: C=CC(=O)N1CCC(Nc2cnc3[nH]cc(C(=O)NCC(C)C)c3n2)C1 (stereo in doubt)
modifierSign: =
pIC50: 7.64
--
molecule: C=CC(=O)N1C[C@H](Nc2cnc3[nH]cc(C(=O)NCC)c3n2)C[C@H]1COC
modifierSign: =
pIC50: 6.12
--
molecule: C=CC(=O)N1CCC(Nc2cnc3[nH]cc(C(=O)NCc4nc5ccc(F)cc5o4)c3n2)CC1
modifierSign: =
pIC50: 7.66
--
molecule: C=CC(=O)N1C[C@H](Nc2cnc3[nH]cc(C(=O)NCCOC)c3n2)C[C@H]1COC
modifierSign: =
pIC50: 5.98
--
molecule: C=CC(=O)N1CCN(c2cnc3[nH]cc(C(=O)NC(CC)(CC)CO)c3n2)CC1(C)C
modifierSign: =
pIC50: 6.80
--
molecule: C=CC(=O)N1CCC(Oc2cnc3[nH]cc(C(=O)NCC4(O)CCCC[C@@H]4F)c3n2)CC1 (mixture of isomers)
modifierSign: =
pIC50: 6.28
--
molecule: C=CC(=O)N1CCC(Oc2cnc3[nH]cc([C@H](C)O)c3n2)CC1 (single isomer, unassigned)
modifierSign: =
pIC50: 5.72
--
molecule: C=CC(=O)N1C[C@@H](Nc2ncnc3[nH]ccc23)CC[C@H]1COC (single isomer, unassigned) [Example 96]
modifierSign: <
pIC50: 5.00
--
molecule: C=CC(=O)N1C[C@@H](CC)[C@@H](Nc2cnc3[nH]cc(C(=O)NCCOC)c3n2)C1
modifierSign: =
pIC50: 5.19
--
molecule: C=CC(=O)N1CCN(c2cnc3[nH]cc(C(=O)NCC(C)(C)C)c3n2)C[C@@H]1CC(C)C
modifierSign: =
pIC50: 7.35
--
molecule: C=CC(=O)N1CC[C@H](Nc2cnc3[nH]cc(C(=O)N[C@H](C)COC)c3n2)C[C@@H]1C (single isomer, unassigned) [Example 57]
modifierSign: =
pIC50: 6.62
--
molecule: C=CC(=O)N1CCN(c2cnc3[nH]cc(C(=O)NC(C)COC)c3n2)CC1(C)C (racemic)
modifierSign: =
pIC50: 6.95
--
molecule: C=CC(=O)N1CCN(c2cnc3[nH]cc(C(=O)NCC(C)CC(F)(F)F)c3n2)CC1 (racemic)
modifierSign: =
pIC50: 7.51
--
molecule: C=CC(=O)N1CC[C@@H](COc2cnc3[nH]cc(C(=O)N[C@H](C)COC)c3n2)C1 (single isomer, unassigned)
modifierSign: =
pIC50: 5.52
--
molecule: C=CC(=O)N1CC[C@@H](Nc2cnc3[nH]cc(C(=O)NC[C@H](C)CC(F)(F)F)c3n2)[C@@H](OC)C1
modifierSign: =
pIC50: 7.16
--
molecule: C=CC(=O)N1CC(Nc2ncnc3[nH]ccc23)CCC1[C@@H](C)O (mixture of isomers)
modifierSign: =
pIC50: 6.81
--
molecule: C=CC(=O)N1CCN(c2cnc3[nH]cc(C(=O)N[C@@H](c4ccccc4)C(C)(C)O)c3n2)CC1(C)C
modifierSign: =
pIC50: 6.24
--
molecule: C=CC(=O)N1CCC(Nc2cnc3[nH]cc(C(=O)NC[C@H](C)CC(F)(F)F)c3n2)CC1C (stereo partly drawn)
modifierSign: =
pIC50: 6.30
--
molecule: C=CC(=O)N1C[C@@H](COCCC#N)C[C@@H](Nc2ncnc3[nH]ccc23)C1 (single isomer, unassigned)
modifierSign: =
pIC50: 5.57
--
molecule: C=CC(=O)N1C[C@H](Nc2cnc3[nH]cc(C(=O)NCC)c3n2)[C@@](C)(C#N)C1
modifierSign: =
pIC50: 5.39
